Where do these numbers come from? They come from patent US20260209362A1.

Item-by-item account of dMFI
study_target: T1, human IL-12Rβ2 expressed on cells (human, UniProt Q99665 24-862)
T1 construct: the cell lines are described by plasmid or cDNA number only; also called hIL-12RB2; HEK293T transiently transfected with human IL-12Rβ2
T1 sequence: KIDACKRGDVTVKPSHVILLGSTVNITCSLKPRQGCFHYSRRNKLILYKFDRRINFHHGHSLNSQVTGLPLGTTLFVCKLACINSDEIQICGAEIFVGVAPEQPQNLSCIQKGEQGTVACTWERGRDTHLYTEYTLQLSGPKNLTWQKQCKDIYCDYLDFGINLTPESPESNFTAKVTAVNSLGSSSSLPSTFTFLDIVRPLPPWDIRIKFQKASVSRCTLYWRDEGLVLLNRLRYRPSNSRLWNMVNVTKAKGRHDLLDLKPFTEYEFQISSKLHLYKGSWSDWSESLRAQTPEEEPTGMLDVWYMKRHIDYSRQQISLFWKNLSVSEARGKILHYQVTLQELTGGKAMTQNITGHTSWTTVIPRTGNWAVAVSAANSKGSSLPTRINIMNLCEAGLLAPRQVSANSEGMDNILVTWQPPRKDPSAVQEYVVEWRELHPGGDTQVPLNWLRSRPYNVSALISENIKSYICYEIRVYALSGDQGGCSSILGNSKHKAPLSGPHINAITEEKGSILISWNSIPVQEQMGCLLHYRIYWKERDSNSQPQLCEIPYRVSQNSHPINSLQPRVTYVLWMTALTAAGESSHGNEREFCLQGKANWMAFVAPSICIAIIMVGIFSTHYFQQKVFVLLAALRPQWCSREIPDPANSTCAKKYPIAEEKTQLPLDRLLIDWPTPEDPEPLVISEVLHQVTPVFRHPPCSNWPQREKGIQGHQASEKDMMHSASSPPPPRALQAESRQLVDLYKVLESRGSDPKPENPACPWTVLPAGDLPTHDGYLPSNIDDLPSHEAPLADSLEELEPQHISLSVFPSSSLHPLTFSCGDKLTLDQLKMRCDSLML
experiment_summary: flow cytometry, periplasmic extract VHH-HA on HEK293T cells transiently expressing human IL-12Rβ2

// worked examples, dMFI included
INSERT INTO results (binder, result) VALUES
  ('anti-IL-12Rβ2 VHH clone 3CAHS171 (clone ID 20407) (VHH, Tested as periplasmic extract; not shown: C-terminal HA tag) VHH: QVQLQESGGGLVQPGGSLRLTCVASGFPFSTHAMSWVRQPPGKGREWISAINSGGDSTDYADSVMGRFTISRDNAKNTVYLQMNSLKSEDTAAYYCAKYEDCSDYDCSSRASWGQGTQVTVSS', 1180),
  ('anti-IL-12Rβ2 VHH clone 3CAHM11 (clone ID 21050) (VHH, Tested as periplasmic extract; not shown: C-terminal HA tag) VHH: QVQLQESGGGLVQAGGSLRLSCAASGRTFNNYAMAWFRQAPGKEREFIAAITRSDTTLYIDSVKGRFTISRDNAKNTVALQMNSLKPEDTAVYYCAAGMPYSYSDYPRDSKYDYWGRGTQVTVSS', 684);

With those in mind, consider the next binder.
INPUT: Name the recorded dMFI of the item anti-IL-12Rβ2 VHH clone 3CRHS54 (clone ID 20422) (VHH, Tested as periplasmic extract (P.E.) from the pMECS vector; not shown: C-terminal HA tag) VHH: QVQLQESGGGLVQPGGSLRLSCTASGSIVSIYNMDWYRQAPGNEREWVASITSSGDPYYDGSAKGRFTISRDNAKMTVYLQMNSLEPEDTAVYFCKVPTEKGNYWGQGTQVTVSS in your answer.
OUTPUT: 870
